Test system: S. mansoni schistosomulae
assay_procedure: Motility assay on schistosomulae (pixel displacement, relative to DMSO control)
Format: cell-based, Schistosoma mansoni
test_parameters: Schistosoma mansoni, 120 h; schistosomulae, secondary screen, 24h exposure, read at D5, 1 µM; read-out: Fractional motility
activity at 1 µM by entry:
measured_metric: activity at 1 µM

In [3]: df
Out[3]:
                                    compound          system_under_test   measured_metric  result
 0  CNCc1ccc(C)c(NC(=O)c2ccc(Nc3nc(-c4ccccc4)c4ccccc4n3)cc2)c1  S. mansoni schistosomulae  activity at 1 µM    -48%
 1  Cc1ccc(C(=O)N(CCCN)[C@@H](c2nc3cc(Cl)ccc3c(=O)n2Cc2ccccc2)C(C)C)cc1  S. mansoni schistosomulae  activity at 1 µM    125%
 2  COCCn1c2c([n+](Cc3cnccn3)c1C)C(=O)c1ccccc1C2=O  S. mansoni schistosomulae  activity at 1 µM    -82%
 3  CN(C)CCC[C@@]1(c2ccc(F)cc2)OCc2cc(C#N)ccc21  S. mansoni schistosomulae  activity at 1 µM     16%
 4  COC(=O)C1=C(C)NC(C)=C(C(=O)OCCN2CCN(C(c3ccccc3)c3ccccc3)CC2)C1c1cccc([N+](=O)[O-])c1 (centres unmarked)  S. mansoni schistosomulae  activity at 1 µM    -59%
 5  C[C@@H](NCCCc1cccc(C(F)(F)F)c1)c1cccc2ccccc12  S. mansoni schistosomulae  activity at 1 µM    -32%
 6  C=CC(=O)N1CCC[C@@H](n2nc(-c3ccc(Oc4ccccc4)cc3)c3c(N)ncnc32)C1  S. mansoni schistosomulae  activity at 1 µM    244%
 7  C=C1C(=O)O[C@@H]2/C=C(\C)CC/C=C(\C)CC[C@@H]12 [Costunolide]  S. mansoni schistosomulae  activity at 1 µM     16%
 8            CCCCCCCCc1ccc(CCC(N)(CO)CO)cc1  S. mansoni schistosomulae  activity at 1 µM    151%
 9  CCCCCCCCOc1ccccc1C(=O)Nc1ccc(C(=O)OCC[N+](C)(CC)CC)cc1  S. mansoni schistosomulae  activity at 1 µM     31%
10  COc1cc(N2CCN(C)CC2)ccc1Nc1nccc(-c2cn(C)c3cnccc23)n1  S. mansoni schistosomulae  activity at 1 µM     49%
11  Cc1c(C(=O)NN2CCCCC2)nn(-c2ccc(Cl)cc2Cl)c1-c1ccc(Cl)cc1  S. mansoni schistosomulae  activity at 1 µM    -21%
12  C=CC[C@]1(O)CC[C@H]2[C@@H]3CCC4=CC(=O)CCC4=C3C=C[C@@]21C  S. mansoni schistosomulae  activity at 1 µM    -12%
13  COc1ccc2cc1Oc1ccc(cc1)C[C@H]1c3cc(c(OC)cc3CCN1C)Oc1c(OC)c(OC)cc3c1[C@H](C2)N(C)CC3  S. mansoni schistosomulae  activity at 1 µM    -31%
14  CNCCC(Oc1ccc(C(F)(F)F)cc1)c1ccccc1 (centres unmarked)  S. mansoni schistosomulae  activity at 1 µM    105%
15  Cc1ccc(C(=O)N(CCCN)[C@@H](c2oc3cc(Cl)ccc3c(=O)c2Cc2ccccc2)C(C)C)cc1  S. mansoni schistosomulae  activity at 1 µM     17%
16  CC(C(O)c1ccc(O)cc1)N1CCC(Cc2ccccc2)CC1 (centres unmarked)  S. mansoni schistosomulae  activity at 1 µM     11%

====

Test system: S. mansoni schistosomulae
assay_procedure: Motility assay on schistosomulae (pixel displacement, relative to DMSO control)
Assay type: cell-based, Schistosoma mansoni
test_parameters: schistosomulae, secondary screen, 24h exposure, read at D5, 10 µM
Response key: Condition met means Fractional motility >= -0.9; Condition not met means Fractional motility < -0.9.

                                    compound     assigned_label
 0     CN1CCN(C2=Nc3cc(Cl)ccc3Nc3ccccc32)CC1      Condition met
 1  C[C@@H](NCCCc1cccc(C(F)(F)F)c1)c1cccc2ccccc12  Condition not met
 2  C[C@]12CC[C@@H]3c4ccc(O)cc4CC[C@H]3[C@@H]1CC[C@@H]2O      Condition met
 3      O=[N+]([O-])c1ccc2c(c1)S(=O)(=O)C=C2  Condition not met
 4                       COC(=O)C1=CCCN(C)C1      Condition met
 5  Cc1cc(Nc2ncc(Cl)c(Nc3ccccc3S(=O)(=O)C(C)C)n2)c(OC(C)C)cc1C1CCNCC1  Condition not met
 6                    N#CSc1cc(SC#N)c(N)nc1N      Condition met
 7  CCCCc1oc2ccccc2c1C(=O)c1cc(I)c(OCCN(CC)CC)c(I)c1  Condition not met
 8  CCCCCCCCCCCCCCCCn1cc[n+](Cc2ccccc2)c1C.[I-]      Condition met
 9  Cc1cnc(-c2cc(N3CCN(C(=O)CCS(C)(=O)=O)CC3)ncc2Cl)c(C)c1      Condition met
10  CNCc1ccc(-c2cc(-c3nc(-c4ccc(S(=O)(=O)C(C)C)cc4)cnc3N)on2)cc1      Condition met
11  O=C1Cc2cc(CCN3CCN(c4nsc5ccccc45)CC3)c(Cl)cc2N1  Condition not met
12  CCCCCCCCOc1ccccc1C(=O)Nc1ccc(C(=O)OCC[N+](C)(CC)CC)cc1      Condition met
13  COCCCN1CCC(NC(=O)c2cc(Cl)c(N)c3c2OCC3)CC1 [Prucalopride]      Condition met
14  NCC(=O)Nc1ccc(-n2nc(C(F)(F)F)cc2-c2ccc3c(ccc4ccccc43)c2)cc1      Condition met
15            CCCCCCCCc1ccc(CCC(N)(CO)CO)cc1  Condition not met
16  COC(=O)C1=C(C)NC(C)=C(C(=O)OCCN2CCN(C(c3ccccc3)c3ccccc3)CC2)C1c1cccc([N+](=O)[O-])c1 (centres unmarked)      Condition met
17  Cc1ccc(C(=O)N(CCCN)[C@@H](c2nc3cc(Cl)ccc3c(=O)n2Cc2ccccc2)C(C)C)cc1      Condition met
18  CCn1c2ccccc2c2cc(Nc3ccnc(NCCCN4CCOCC4)n3)ccc21  Condition not met
19  C=CC(=O)N1CCC[C@@H](n2nc(-c3ccc(Oc4ccccc4)cc3)c3c(N)ncnc32)C1      Condition met
20  CNCCC(Oc1ccc(C(F)(F)F)cc1)c1ccccc1 (centres unmarked)      Condition met
21  O=C(C1CCCCC1)N1CC(=O)N2CCc3ccccc3C2C1 (centres unmarked)      Condition met
22                     NS(=O)(=O)C#Cc1ccccc1  Condition not met
23  C=CC[C@]1(O)CC[C@H]2[C@@H]3CCC4=CC(=O)CCC4=C3C=C[C@@]21C      Condition met
24  Cc1nc(C#Cc2ccnc(Cl)c2)c(C)n1-c1ccc(OC(F)(F)F)cc1      Condition met
25  NC(=O)C(c1ccccc1)(c1ccccc1)[C@@H]1CCN(CCc2ccc3c(c2)CCO3)C1      Condition met
26  O=C(O[C@H]1CN2CCC1CC2)N1CCc2ccccc2[C@@H]1c1ccccc1      Condition met
27  COCCn1c2c([n+](Cc3cnccn3)c1C)C(=O)c1ccccc1C2=O  Condition not met
28  COc1cc(N2CCN(C)CC2)ccc1Nc1nccc(-c2cn(C)c3cnccc23)n1      Condition met
29  Cc1c(C(=O)NN2CCCCC2)nn(-c2ccc(Cl)cc2Cl)c1-c1ccc(Cl)cc1      Condition met
30  COc1ccc2cc1Oc1ccc(cc1)C[C@H]1c3cc(c(OC)cc3CCN1C)Oc1c(OC)c(OC)cc3c1[C@H](C2)N(C)CC3      Condition met
31            O=[N+]([O-])C=Cc1ccc2c(c1)OCO2      Condition met
32  CN(C)CCC[C@@]1(c2ccc(F)cc2)OCc2cc(C#N)ccc21      Condition met

====

Tested on: S. mansoni adult worms
assay_procedure: Motility assay on adult parasites (pixel displacement, relative to DMSO control)
Format: cell-based, Schistosoma mansoni
test_parameters: secondary screen, 10 μM, D5, Female adult worms
Response key: Y means Fractional motility >= -0.4; N means Fractional motility < -0.4.

>>> print(df.to_string())
                                    compound  assigned_label
 0  C[C@]12CC[C@@H]3c4ccc(O)cc4CC[C@H]3[C@@H]1CC[C@@H]2O               Y
 1  C=CC(=O)Nc1cccc(Oc2nc(Nc3ccc(N4CCN(C)CC4)cc3OC)ncc2Cl)c1               N
 2                    N#CSc1cc(SC#N)c(N)nc1N               N
 3  CCOC(=O)CCNc1cc(N2CCc3ccccc3CC2)nc(-c2ccccn2)n1               N
 4  CNCc1ccc(-c2cc(-c3nc(-c4ccc(S(=O)(=O)C(C)C)cc4)cnc3N)on2)cc1               N
 5  COc1ccc2cc1Oc1ccc(cc1)C[C@H]1c3cc(c(OC)cc3CCN1C)Oc1c(OC)c(OC)cc3c1[C@H](C2)N(C)CC3               N
 6  CN1CCC(CNc2ccc3ncc(-c4cccc(OC(F)(F)F)c4)n3n2)CC1               Y
 7  c1cc(-c2cnn3cc(-c4ccc(N5CCNCC5)cc4)cnc23)c2cccnc2c1               N
 8  O=C(O[C@H]1CN2CCC1CC2)N1CCc2ccccc2[C@@H]1c1ccccc1               N
 9  CC(C(O)c1ccc(O)cc1)N1CCC(Cc2ccccc2)CC1 (stereo not drawn)               Y
10  C=C1C(=O)O[C@H]2[C@H]1CC/C(C)=C/CC[C@@]1(C)O[C@@H]21 [(-)-Parthenolide]               N
11  C[C@@H](NCCCc1cccc(C(F)(F)F)c1)c1cccc2ccccc12               N
12                       COC(=O)C1=CCCN(C)C1               N
13       COCCCC/C(=N\OCCN)c1ccc(C(F)(F)F)cc1               Y
14  O=C(C1CCCCC1)N1CC(=O)N2CCc3ccccc3C2C1 (stereo not drawn)               N
15  COCCCN1CCC(NC(=O)c2cc(Cl)c(N)c3c2OCC3)CC1 [Prucalopride]               Y
16  NC(=O)C(c1ccccc1)(c1ccccc1)[C@@H]1CCN(CCc2ccc3c(c2)CCO3)C1               N
17  CN(C)CCC[C@@]1(c2ccc(F)cc2)OCc2cc(C#N)ccc21               Y
